Entries annotated with measured Proxy for plastic degradation
assay: Proxy for plastic degradation [UPLC/UHPLC]; details: pH 9; 40 °C
MEASURE_NAME: Proxy for plastic degradation

PROTEIN	REPORTED
unnamed (protein) MKTNRRTLMLTGIAMTIGTAGRAAQATPEFKPQPGPLSIKSAAAISFRVEDQAKDLQIRVTYPDGPGPWPAIIFSHGAMSSKDFYNRVADHWATHGYATILPTHLDSESLGYSFKNPLPREKVFFGRIGDMQFILNHLDEIAGKAGIAGKIEKTKLAVAGHSFGGWTSLILAGLPVKMPDGSLKSFADSRIKALVSYNGIGPMDEIPDAAWAKVAIPVFAASGTNDPGATGSGPVHPWRWRIGAYDYAGSKEKYAVSITMGDHYYGGLICREGAGGKPDPEGLSFVNGSSTAFMDAYLKDDKSAKKFLRTADLRPLTNDRAFLERS	12.8 µM
unnamed (protein) MRARIAALVAVPFLGAGAFAVSSVAAGDPPAVRTVPAAAAAPVDWSKTGPHQVKVDKADAHTIYRPSDLGSGGVKNPVVIWGNGTGATPAAYDGLLRHWASHGFVVAAANTKQANNGNAMRAGLDLVTKWNTTSSSPYYGKVDVSRVASSGHSQGGAGAMNAAVDTRVDAVLPIQPGPLAAPRKFKQPTFYMAGQNDRVVWPSWVRNFYNKSGHLPAVFGVVRGATHVAPAGDGGAFRGPTTAWLSFTLRGDASARAQFAGASCGYCGASSPFSNWLRNTRFTSQNG	12.6 µM
unnamed (protein) MNFPRASRLMQAAVLGGLMAVSAAATAQTNPYARGPNPTAASLEASAGPFTVRSFTVSRPSGYGAGTVYYPTNAGGTVGAIAIVPGYTARQSSINWWGPRLASHGFVVITIDTNSTLDQPSSRSSQQMAALRQVASLNGTSSSPIYGKVDTARMGVMGWSMGGGGSLISAANNPSLKAAAPQAPWNSSTNFSSVTVPTLIFACENDSIAPVNSHALPFYNSMSRNAKQFLEINGGSHSCANSGNSNQALIGKKGVAWMKRFMDNDTRYSTFACQNPNSTRVSDFRTANCS	64.7 µM

Cited source: the PETadex activity labels (doi:10.1038/s41467-025-61599-z)
